Cited source for all entries: PubChem BioAssay (EPA / NIEHS)

TEST_DESCRIPTION: Tanguay_ZF_120hpf_TRUN_legacy: (Legacy) Oregon State University Tanguay Lab 120 Hour Post-fertilization zebrafish Assay for Truncated Body (AID 2283655)
Results filed as inconclusive are left out. Calls of active or inactive are those of the source. Rule for the calls: active = hit-call score of the fitted dose curve at least 0.9, where 1 is the maximum; inconclusive = response in the unintended direction; inactive = score below 0.9.
Please reply with one of these outcomes: T for active, F for inactive

Inquiry: // outcome(item) with item = O=C1OC(=O)C2C3C=CC(C3)C12 (stereo unspecified)
Reply text: F

Inquiry: // outcome(item) with item = `CN(C)c1ccc(N=NS(=O)(=O)O)cc1`
Reply text: F

Inquiry: // outcome(item) with item = `Nc1ccc(Nc2ccccc2)cc1`
Reply text: T

Inquiry: // outcome(item) with item = `O=C(O)c1cccc(Oc2ccccc2)c1`
Reply text: F

Inquiry: // outcome(item) with item = `O=P(OC(CCl)CCl)(OC(CCl)CCl)OC(CCl)CCl`
Reply text: T

Inquiry: // outcome(item) with item = O=c1[nH]c2ccc(S(=O)CCN3CCC(Cc4ccc(F)cc4)CC3)cc2o1 (stereo unspecified)
Reply text: F

###

TEST_DESCRIPTION: Tanguay_ZF_120hpf_ActivityScore_legacy: (Legacy) Oregon State University Tanguay Lab 120 Hour Post-fertilization zebrafish Assay Score for Activity (AID 2283742)
Active and inactive are the calls of the source. Rule for the calls: active = hit-call score of the fitted dose curve at least 0.9, where 1 is the maximum; inconclusive = response in the unintended direction; inactive = score below 0.9.
MEASUREMENT_KIND: outcome

Consider the worked cases shown below.
CCCCC(CC)COC(=O)c1ccc(C(=O)OCC(CC)CCCC)cc1 (configuration not stated)	inactive
C=CC(=C)CCC=C(C)C	inactive
CCCN(C1CCN(C(=O)C2CCNCC2)CC1)[C@@H]1CCc2ccc(OC)cc2C1	inactive
COc1ccc2sc(C(=O)Nc3nnn[nH]3)c(OC(C)C)c2c1	inactive
Cc1c(-c2cccnc2)c2ccccc2n1CCCCC(=O)O	inactive

Inquiry: Quick one: outcome of `CN(C)c1ccc(Cc2ccc(N(C)C)cc2)cc1` ?
Reply text: inactive

Inquiry: Quick one: outcome of `O=C(O)CCN(C1(C(=O)NO)CCCC1)S(=O)(=O)c1ccc(Oc2ccc(F)cc2)cc1` ?
Reply text: inactive

###

Read-out: Cytochrome P450 2C19 (Homo sapiens) (UniProt P33261)
Sequence (P33261 whole entry, looked up): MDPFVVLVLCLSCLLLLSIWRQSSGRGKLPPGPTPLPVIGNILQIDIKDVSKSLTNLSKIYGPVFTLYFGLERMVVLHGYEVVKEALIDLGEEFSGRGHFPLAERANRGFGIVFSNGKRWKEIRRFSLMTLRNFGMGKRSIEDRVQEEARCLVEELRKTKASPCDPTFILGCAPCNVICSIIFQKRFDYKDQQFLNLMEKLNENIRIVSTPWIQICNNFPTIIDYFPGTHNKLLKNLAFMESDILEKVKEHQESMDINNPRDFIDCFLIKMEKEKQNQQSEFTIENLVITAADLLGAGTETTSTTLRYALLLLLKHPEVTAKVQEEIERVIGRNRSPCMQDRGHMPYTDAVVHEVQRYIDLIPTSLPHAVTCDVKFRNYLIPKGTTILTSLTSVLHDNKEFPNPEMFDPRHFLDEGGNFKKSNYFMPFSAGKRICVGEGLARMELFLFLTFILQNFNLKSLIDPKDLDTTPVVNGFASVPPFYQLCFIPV
TEST_DESCRIPTION: LTEA_HepaRG_CYP2C19: Life Technologies and Expression Analysis (LTEA) Assay for CYP2C19 using HepaRG (AID 2283482)
TEST_CONTEXT: mRNA level, 48 h; actives raise or lower the signal
Calls of active or inactive are those of the source. How the source made its calls: active means hit-call score of the fitted dose curve at least 0.9, where 1 is the maximum; inactive means score below 0.9.
Please reply with one of these outcomes: Yes (active), No (inactive)

Inquiry: // outcome(item) with item = `COc1ccc2sc(C(=O)Nc3nnn[nH]3)c(OC(C)C)c2c1`
Reply text: Yes

Inquiry: // outcome(item) with item = `CC(=O)OCCC(C)C`
Reply text: No

Inquiry: // outcome(item) with item = `COc1ccc(/C=C/S(=O)(=O)NC(=O)c2ccc(C)cc2Cl)cc1`
Reply text: No

###

TEST_DESCRIPTION: BSK_3C_Vis: BioMAP Diversity Plus: 3C Assay for Morphology Visualization (AID 2283025);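 note: fitted both ways so gain or loss versus DMSO counts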
TEST_CONTEXT: primary human endothelial cells (HUVEC)
Protocol: BSK_3C is a cell-based, multiplexed-readout assay that uses umbilical vein endothelium, a human vascular primary cell, with measurements taken at 24 hours after chemical dosing in a 96-well plate.BSK_3C_Vis is an assay component measured in the BSK_3C assay. It measures NA related to cell morphology using light microscopy technology.Data from the assay component BSK_3C_Vis was analyzed into 1 assay endpoint. […]
Calls of active or inactive are those of the source. How the source made its calls: active means hit-call score of the fitted dose curve at least 0.9, where 1 is the maximum; inactive means score below 0.9.
Please reply with one of these outcomes: yes (1) (active), no (0) (inactive)

Inquiry: // outcome(item) with item = `CC(C)CCCCCCOC(=O)c1ccc(C(=O)OCCCCCCC(C)C)c(C(=O)OCCCCCCC(C)C)c1`
Reply text: no (0)

Inquiry: // outcome(item) with item = `CC(C)c1cccc(C(C)C)c1N1C(=O)c2ccc(O)cc2C1=O`
Reply text: yes (1)

Inquiry: // outcome(item) with item = `CC(=O)c1ccc2c(c1)[C@H](NC(=O)c1ccc(F)cc1)[C@@H](O)C(C)(C)O2`
Reply text: no (0)
